Reference source: patent US20210238260

# measured-on: Factor X, P00742
# Sequence (P00742 whole entry, looked up): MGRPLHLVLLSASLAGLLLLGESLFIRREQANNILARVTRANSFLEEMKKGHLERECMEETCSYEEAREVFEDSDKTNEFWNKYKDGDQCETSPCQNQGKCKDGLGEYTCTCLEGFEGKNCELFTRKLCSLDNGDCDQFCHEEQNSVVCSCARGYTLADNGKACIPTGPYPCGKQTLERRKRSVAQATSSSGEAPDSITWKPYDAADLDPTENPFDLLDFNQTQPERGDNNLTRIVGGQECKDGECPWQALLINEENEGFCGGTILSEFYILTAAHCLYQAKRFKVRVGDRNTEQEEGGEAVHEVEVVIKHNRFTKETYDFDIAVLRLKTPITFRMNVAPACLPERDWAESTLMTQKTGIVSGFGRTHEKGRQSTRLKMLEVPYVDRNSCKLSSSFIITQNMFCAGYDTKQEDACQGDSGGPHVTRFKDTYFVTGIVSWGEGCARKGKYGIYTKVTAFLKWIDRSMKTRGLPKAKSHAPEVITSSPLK
Values of % of WT kcat/KM greater than or equal to 400% map to condition met; values below map to condition not met.

{"protein": "FIXa Y155F/K228N/K247N/N249S/R318Y/R338E/R403E/E410N (protein) chain 1: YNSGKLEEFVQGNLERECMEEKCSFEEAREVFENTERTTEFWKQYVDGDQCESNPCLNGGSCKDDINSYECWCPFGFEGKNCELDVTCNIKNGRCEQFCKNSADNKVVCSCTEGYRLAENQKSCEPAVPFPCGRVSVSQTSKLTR chain 2: VVGGEDAKPGQFPWQVVLNGKVDAFCGGSIVNEKWIVTAAHCVETGVNITVVAGEHNIEETEHTEQNRSVIRIIPHHNYNAAINKYNHDIALLELDEPLVLNSYVTPICIADKEYTNIFLKFGSGYVSGWGRVFHKGYSALVLQYLRVPLVDRATCLESTKFTIYNNMFCAGFHEGGRDSCQGDSGGPHVTEVEGTSFLTGIISWGEECAMKGKYGIYTKVSEYVNWIKNKTKLT", "qualitative-label": "condition not met"}
{"protein": "FIXa Y155F/R318Y/R338E/T343R/R403E/E410N (protein) chain 1: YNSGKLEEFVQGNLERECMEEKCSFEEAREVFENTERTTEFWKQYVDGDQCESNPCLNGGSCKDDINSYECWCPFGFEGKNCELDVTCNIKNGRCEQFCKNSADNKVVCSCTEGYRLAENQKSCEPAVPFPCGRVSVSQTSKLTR chain 2: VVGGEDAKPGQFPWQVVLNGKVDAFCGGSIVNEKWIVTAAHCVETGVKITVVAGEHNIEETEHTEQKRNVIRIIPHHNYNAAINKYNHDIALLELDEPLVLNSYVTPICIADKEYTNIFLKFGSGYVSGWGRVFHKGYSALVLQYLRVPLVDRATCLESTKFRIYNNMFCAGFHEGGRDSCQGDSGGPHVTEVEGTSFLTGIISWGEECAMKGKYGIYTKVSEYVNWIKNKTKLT", "qualitative-label": "condition met"}
{"protein": "FIXa-K228N/K247N/N249S/R318Y/R338E/R403E/E410N (protein) chain 1: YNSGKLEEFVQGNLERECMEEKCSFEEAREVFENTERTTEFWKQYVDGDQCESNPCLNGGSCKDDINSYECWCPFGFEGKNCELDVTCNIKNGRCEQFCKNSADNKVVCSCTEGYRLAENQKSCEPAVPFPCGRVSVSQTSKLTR chain 2: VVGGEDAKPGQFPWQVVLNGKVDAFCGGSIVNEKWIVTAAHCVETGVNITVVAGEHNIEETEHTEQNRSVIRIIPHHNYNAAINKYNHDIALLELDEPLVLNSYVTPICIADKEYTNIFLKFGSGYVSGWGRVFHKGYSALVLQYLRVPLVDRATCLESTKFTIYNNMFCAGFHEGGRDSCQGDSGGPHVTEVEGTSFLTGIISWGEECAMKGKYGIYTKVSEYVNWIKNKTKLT", "qualitative-label": "condition not met"}
{"protein": "FIXa-Y155F/K228N/I251S/R318Y/R338E/R403E/E410N (protein) chain 1: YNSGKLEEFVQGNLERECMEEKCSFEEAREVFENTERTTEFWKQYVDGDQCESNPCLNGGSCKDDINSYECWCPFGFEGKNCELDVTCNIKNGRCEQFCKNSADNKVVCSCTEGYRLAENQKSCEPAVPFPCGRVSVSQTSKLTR chain 2: VVGGEDAKPGQFPWQVVLNGKVDAFCGGSIVNEKWIVTAAHCVETGVNITVVAGEHNIEETEHTEQKRNVSRIIPHHNYNAAINKYNHDIALLELDEPLVLNSYVTPICIADKEYTNIFLKFGSGYVSGWGRVFHKGYSALVLQYLRVPLVDRATCLESTKFTIYNNMFCAGFHEGGRDSCQGDSGGPHVTEVEGTSFLTGIISWGEECAMKGKYGIYTKVSEYVNWIKNKTKLT", "qualitative-label": "condition not met"}
{"protein": "FIXa-R318Y/R338E/R403E/E410N/T412V (protein) chain 1: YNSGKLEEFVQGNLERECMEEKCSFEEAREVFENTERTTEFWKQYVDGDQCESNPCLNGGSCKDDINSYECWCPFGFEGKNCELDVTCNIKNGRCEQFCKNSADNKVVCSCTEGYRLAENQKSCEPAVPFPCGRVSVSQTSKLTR chain 2: VVGGEDAKPGQFPWQVVLNGKVDAFCGGSIVNEKWIVTAAHCVETGVKITVVAGEHNIEETEHTEQKRNVIRIIPHHNYNAAINKYNHDIALLELDEPLVLNSYVTPICIADKEYTNIFLKFGSGYVSGWGRVFHKGYSALVLQYLRVPLVDRATCLESTKFTIYNNMFCAGFHEGGRDSCQGDSGGPHVTEVEGTSFLTGIISWGEECAMKGKYGIYTKVSEYVNWIKNKVKLT", "qualitative-label": "condition met"}
{"protein": "FIXa R318Y/R338E/T343R/N346D/R403E/E410N (protein) chain 1: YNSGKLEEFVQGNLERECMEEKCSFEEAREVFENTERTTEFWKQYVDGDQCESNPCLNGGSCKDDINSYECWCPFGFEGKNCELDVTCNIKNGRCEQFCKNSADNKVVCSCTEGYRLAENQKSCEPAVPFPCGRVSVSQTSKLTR chain 2: VVGGEDAKPGQFPWQVVLNGKVDAFCGGSIVNEKWIVTAAHCVETGVKITVVAGEHNIEETEHTEQKRNVIRIIPHHNYNAAINKYNHDIALLELDEPLVLNSYVTPICIADKEYTNIFLKFGSGYVSGWGRVFHKGYSALVLQYLRVPLVDRATCLESTKFRIYDNMFCAGFHEGGRDSCQGDSGGPHVTEVEGTSFLTGIISWGEECAMKGKYGIYTKVSEYVNWIKNKTKLT", "qualitative-label": "condition not met"}
{"protein": "FIXa-Y155F/K247N/N249S/R338E/T343R/R403E/E410N (protein) chain 1: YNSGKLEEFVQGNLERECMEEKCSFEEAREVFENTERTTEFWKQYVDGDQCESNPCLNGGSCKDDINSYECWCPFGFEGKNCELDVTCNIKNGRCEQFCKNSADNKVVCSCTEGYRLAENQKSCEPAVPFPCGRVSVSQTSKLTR chain 2: VVGGEDAKPGQFPWQVVLNGKVDAFCGGSIVNEKWIVTAAHCVETGVKITVVAGEHNIEETEHTEQNRSVIRIIPHHNYNAAINKYNHDIALLELDEPLVLNSYVTPICIADKEYTNIFLKFGSGYVSGWGRVFHKGRSALVLQYLRVPLVDRATCLESTKFRIYNNMFCAGFHEGGRDSCQGDSGGPHVTEVEGTSFLTGIISWGEECAMKGKYGIYTKVSEYVNWIKNKTKLT", "qualitative-label": "condition met"}
